VALUE TYPE: melting point

These solved cases illustrate the format of a correct answer.
Query block: Name the reported melting point value associated with the compound O=C(Cc1cc(I)c(Oc2cc(I)c(OCC3CO3)c(I)c2)c(I)c1)OCC1CO1 (configuration not stated)
Result block: 116 °C

Query block: Further, for CCCCCCCCCCCCCCCCS(=O)(=O)Nc1ccc2c(c1)C(NS(=O)(=O)CCCCCCCCCCCCCCCC)(c1ccccc1)C=N2 (configuration not stated) ?
Result block: 210 to 212 °C

Query block: Further, for Nc1cc(C(F)(F)C(F)(F)OC(F)(F)C(F)(OC(F)(F)C(F)(F)OC(F)(C(F)(F)F)C(F)(F)OC(F)(F)C(F)(F)c2ccc(O)c(N)c2)C(F)(F)F)ccc1O (configuration not stated) ?
Result block: 55 to 58 °C

Query block: Further, for "C=CCOc1ccc(C[C@H](NC(=O)OC(C)(C)C)C(=O)N[C@H](C(=O)OC)C(C)C)cc1" ?
Result block: 74 to 76 °C

Query block: Further, for CC(=O)OCC(CNC(=O)c1c(I)c(C(=O)NCC(COC(C)=O)OC(C)=O)c(I)c(N2C(=O)COCC2COC(C)=O)c1I)OC(C)=O (configuration not stated) ?
Result block: 210 to 212 °C

Query block: Further, for C=CCC1C=C(C)CC(C)CC(OC)C2OC(O)(C(C)CC2OC)C(O)C(=O)N2CCCCC2C(=O)OC(C(C)=CC2CCC(O)C(OC)C2)C(C)C(O)CC1O (configuration not stated) ?
Result block: 130 to 150 °C

# ---- query compound ----
Query block: Name the reported melting point value associated with the compound "CCOC(=O)c1cc(NCc2c(C)cccc2CC)c2nc(C)n(C)c2c1"
Result block: 171 to 173 °C

###

melting point values for the compounds below.

Query block: Name the reported melting point value associated with the compound CCCCC(C)OC(=O)c1c(I)c(I)c(C(=O)OC(C)CCCC)c(I)c1I (stereo not drawn)
Result block: 114 to 115 °C

***
Query block: Name the reported melting point value associated with the compound CN(C(=O)C(CC(Cc1ccccc1)C(N)=O)NC(=O)OCc1ccccc1)c1ccc(OCC(=O)NC(CC(N)=O)C(=O)NC(Cc2ccccc2)C(O)C(=O)N2CCCC2C(=O)NC(C)(C)C)cc1 (stereo not drawn)
Result block: 85 to 91 °C

Query block: Further, for "CCn1cc(C(=O)Nc2cc(Oc3ccc4nc(NC(=O)C5CC5)cn4n3)ccc2Cl)c(C)n1" ?
Result block: 200 °C

###

Non-standard residues stand in square brackets, D forms with d. Residues, ends and D or L forms follow the SMILES beside them. ξ: configuration not given here. *: point of attachment. X1 = COC1=CC(=O)N(C(=O)C(O*)C(C)C)C1Cc1ccccc1; ξNMe2Val = CC(C)C(C(=O)*)N(C)C; NMeV = CN[CH](C(=O)O)C(C)C
VALUE TYPE: melting point

Query block: Name the reported melting point value associated with the compound CC(C)Cn1c(C(O)c2ccc(Cl)cc2)nc2c(N)nc3ccccc3c21 (configuration not stated)
Result block: 140 to 145 °C

Query block: Further, for CC(=O)Oc1c(C)cc(Oc2ccc3nc(COc4ccc(CC5SC(=O)N(C(c6ccccc6)(c6ccccc6)c6ccccc6)C5=O)cc4)n(C)c3n2)c(C)c1C (configuration not stated) ?
Result block: 190 to 191 °C

Query block: Further, for CCC(Br)=C1NC(=O)N(C(C(=O)Nc2cc(NC(=O)C(CC)Oc3ccc(C(C)(C)CC)cc3C(C)(C)CC)ccc2Cl)C(=O)c2ccc(OC)cc2)C1=O (configuration not stated) ?
Result block: 112 to 114 °C

Query block: Further, for "CCCCCCCCCCS(=O)(=O)c1c(S(=O)(=O)CCCCCCCCCC)c(S(=O)(=O)CCCCCCCCCC)c(S(=O)(=O)CCCCCCCCCC)c(S(=O)(=O)CCCCCCCCCC)c1S(=O)(=O)CCCCCCCCCC" ?
Result block: 76 °C

Query block: Further, for COC1=CC(=O)N(C(=O)C(OC(=O)C2CCCN2C(=O)C2CCCN2C(=O)C(C(C)C)N(C)C(=O)C(NC(=O)C(C(C)C)N(C)C)C(C)C)C(C)C)C1Cc1ccccc1 (configuration not stated) (ξNMe2Val-V[NMeV]PP-X1; configuration not given here) ?
Result block: 143 to 148 °C

Query block: Further, for CCCCCCCCCCCCCCCCCC[Si](C)(C)O[C@@H]1c2cc(Br)ccc2-c2ccc(Br)cc2[C@H]1O[Si](C)(C)CCCCCCCCCCCCCCCCCC (relative stereo) ?
Result block: 51.5 to 52.5 °C

Query block: Further, for "CC[C@H](C)[C@H](NC(=O)OCC1c2ccccc2-c2ccccc21)C(=O)N[C@@H](Cc1ccc(OC(C)(C)C)cc1)C(=O)N[C@@H](C)C(=O)NCc1c(OC)ccc2c1Oc1c(ccc(OC)c1CC(=O)OCc1ccccc1)C2(C)C" ?
Result block: 218 to 220 °C

Query block: Further, for "O=C(O)c1ccc([Si](CCC(F)(F)C(F)(F)C(F)(F)C(F)(F)C(F)(F)C(F)(F)C(F)(F)C(F)(F)C(F)(F)C(F)(F)F)(CCC(F)(F)C(F)(F)C(F)(F)C(F)(F)C(F)(F)C(F)(F)C(F)(F)C(F)(F)C(F)(F)C(F)(F)F)CCC(F)(F)C(F)(F)C(F)(F)C(F)(F)C(F)(F)C(F)(F)C(F)(F)C(F)(F)C(F)(F)C(F)(F)F)cc1" ?
Result block: 134 to 136 °C

Query block: Further, for "CCCCCCCCCCCCCCCCCCN(CCCCCCCCCCCCCCCCCC)CCCN(CCOC(=O)Nc1ccccc1)CCOC(=O)Nc1ccccc1" ?
Result block: 54 to 56 °C

Query block: Further, for CC(=O)OCC(COC(C)=O)NC(=O)c1c(I)c(NC(=O)OCC2CO2)c(I)c(C(=O)NC(COC(C)=O)COC(C)=O)c1I (configuration not stated) ?
Result block: 228 to 230 °C

***
Query block: Name the reported melting point value associated with the compound "Cc1ccc(Cc2cc(OCCCCCCCCCCCCP(=O)(O)O)ccc2S(=O)(=O)c2ccc(OCCCCCCCCCCCCP(=O)(O)O)cc2Cc2ccc(C)cc2)cc1"
Result block: 148 to 150 °C

Query block: Further, for "CC(COC(=O)CCSCCSCCC(=O)OCC(C)(Cc1cc(C(C)(C)C)c(O)c(C(C)(C)C)c1)Cc1cc(C(C)(C)C)c(O)c(C(C)(C)C)c1)(Cc1cc(C(C)(C)C)c(O)c(C(C)(C)C)c1)Cc1cc(C(C)(C)C)c(O)c(C(C)(C)C)c1" ?
Result block: 156 to 161 °C

Query block: Further, for COc1ccc(C(=CC2(C=C(c3ccc(OC)cc3)c3ccc(N4CCCC4)cc3)OC(=O)c3c(Cl)c(Cl)c(Cl)c(Cl)c32)c2ccc(N3CCCC3)cc2)cc1 (configuration not stated) ?
Result block: 159 to 161 °C

###

melting point values for the molecules below.

These solved cases illustrate the format of a correct answer.
Query block: Name the reported melting point value associated with the molecule COC(C)c1nc2c(N)nc3ccccc3c2n1CCOCCNC(=O)NCCCCCCCCNC(=O)NCCOCCn1c(C(C)OC)nc2c(N)nc3ccccc3c21 (stereo not given)
Result block: 172 to 177 °C

Query block: Further, for "CC1(C)CC(N(c2nc(N(C3CC(C)(C)N(O)C(C)(C)C3)C3CC(C)(C)N(O)C(C)(C)C3)nc(N(C3CC(C)(C)N(O)C(C)(C)C3)C3CC(C)(C)N(O)C(C)(C)C3)n2)C2CC(C)(C)N(O)C(C)(C)C2)CC(C)(C)N1O" ?
Result block: 258 to 261 °C

***
Query block: Name the reported melting point value associated with the molecule CC(C)(C1CCC(OCC(CN2C(C)(C)CC3(CC2(C)C)OCCO3)OC(=O)c2ccccc2)CC1)C1CCC(OCC(CN2C(C)(C)CC3(CC2(C)C)OCCO3)OC(=O)c2ccccc2)CC1 (stereo not given)
Result block: 77 to 79 °C

Query block: Further, for COC(=O)Cc1ccc(C(NC(=O)CCC(Cc2ccccc2)(NC(=O)c2ccc(N(C)C3CCc4cc5nc(C)n(COC(=O)C(C)(C)C)c(=O)c5cc43)cc2F)C(=O)O)C(=O)OC)cc1 (stereo not given) ?
Result block: 85 to 90 °C

Query block: Further, for "CCO[Si](CCCCOc1ccc(S(=O)(=O)c2ccc(OCCCC[Si](OCC)(OCC)OCC)cc2Cc2ccc(C(F)(F)F)cc2)c(Cc2ccc(C(F)(F)F)cc2)c1)(OCC)OCC" ?
Result block: 124 to 128 °C

Query block: Further, for "O=C(OCc1ccc(OCCCCCCCCCCC2c3c(c4ccccc4c4ccccc34)-c3c2c2ccccc2c2ccccc32)cc1)c1cn(C2CC2)c2cc(F)c(F)cc2c1=O" ?
Result block: 71 to 73 °C

Query block: Further, for "CCC1(CC)c2cc(-c3nc4cc5sc(-c6ccc7c(c6)C(CC)(CC)c6cc(N(c8ccccc8)c8ccccc8)ccc6-7)nc5cc4s3)ccc2-c2ccc(N(c3ccccc3)c3ccccc3)cc21" ?
Result block: 180 to 183 °C

Query block: Further, for CC(C)[Si](OC(=O)C(Cc1cc(I)c(Oc2cc(I)c(OCC3CO3)c(I)c2)c(I)c1)NC(=O)OC(C)(C)C)(C(C)C)C(C)C (stereo not given) ?
Result block: 109 °C

Query block: Further, for CC(=O)OCC(CN(CC(COC(C)=O)OC(C)=O)C(=O)c1c(I)c(NC(=O)C2CCCO2)c(I)c(C(N)=O)c1I)OC(C)=O (stereo not given) ?
Result block: 101 to 104 °C

Query block: Further, for "O=C(NCC(COC(C(F)(F)F)(C(F)(F)F)C(F)(F)F)(COC(C(F)(F)F)(C(F)(F)F)C(F)(F)F)C(=O)O)OCC1c2ccccc2-c2ccccc21" ?
Result block: 104 to 105 °C
